Could you please report measured remaining activity at 1 µM for the items listed next?
measurement target: MET (Homo sapiens, UniProt P08581)
Construct: purchased Eurofins Discovery (Kinase Profiler service)
Sequence (P08581 25-1390): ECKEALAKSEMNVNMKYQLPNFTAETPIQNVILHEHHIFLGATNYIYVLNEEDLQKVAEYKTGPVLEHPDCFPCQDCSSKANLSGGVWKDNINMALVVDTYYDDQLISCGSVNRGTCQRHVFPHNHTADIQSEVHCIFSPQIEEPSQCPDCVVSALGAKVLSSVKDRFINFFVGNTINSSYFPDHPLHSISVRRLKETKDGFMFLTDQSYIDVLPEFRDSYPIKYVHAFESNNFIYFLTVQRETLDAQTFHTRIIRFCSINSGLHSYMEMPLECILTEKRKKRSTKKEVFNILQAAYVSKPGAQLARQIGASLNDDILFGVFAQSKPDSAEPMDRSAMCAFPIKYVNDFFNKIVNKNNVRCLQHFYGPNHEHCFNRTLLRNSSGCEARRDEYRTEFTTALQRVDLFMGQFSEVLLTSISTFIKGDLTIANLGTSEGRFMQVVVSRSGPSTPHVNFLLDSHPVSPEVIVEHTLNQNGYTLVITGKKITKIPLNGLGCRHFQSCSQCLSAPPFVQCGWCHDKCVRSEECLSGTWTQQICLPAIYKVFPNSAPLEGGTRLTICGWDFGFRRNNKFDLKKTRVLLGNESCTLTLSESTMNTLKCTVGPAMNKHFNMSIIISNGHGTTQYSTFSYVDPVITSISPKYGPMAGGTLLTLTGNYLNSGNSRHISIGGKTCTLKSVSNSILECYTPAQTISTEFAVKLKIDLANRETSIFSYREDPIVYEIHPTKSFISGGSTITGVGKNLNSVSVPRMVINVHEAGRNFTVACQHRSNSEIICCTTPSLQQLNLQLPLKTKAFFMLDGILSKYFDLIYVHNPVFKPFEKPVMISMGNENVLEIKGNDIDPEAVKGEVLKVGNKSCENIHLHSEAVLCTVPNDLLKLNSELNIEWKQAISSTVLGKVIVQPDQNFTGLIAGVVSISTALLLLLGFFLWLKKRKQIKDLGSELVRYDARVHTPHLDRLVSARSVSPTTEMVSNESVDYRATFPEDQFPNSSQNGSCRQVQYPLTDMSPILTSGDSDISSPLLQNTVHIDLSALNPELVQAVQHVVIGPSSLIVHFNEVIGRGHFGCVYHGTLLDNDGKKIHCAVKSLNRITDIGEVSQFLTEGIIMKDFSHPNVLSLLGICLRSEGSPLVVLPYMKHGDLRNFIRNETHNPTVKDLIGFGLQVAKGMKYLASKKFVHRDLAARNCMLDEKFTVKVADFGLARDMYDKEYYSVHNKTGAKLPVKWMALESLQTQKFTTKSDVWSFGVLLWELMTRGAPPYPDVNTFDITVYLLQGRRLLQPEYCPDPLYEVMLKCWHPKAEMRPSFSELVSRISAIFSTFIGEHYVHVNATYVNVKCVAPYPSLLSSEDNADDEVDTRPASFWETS
measurement notes: Filter-binding radiometric kinase activity assay (KinaseProfiler, Eurofins)
Type: biochemical
conditions: 1 µM compound; read-out: % Residual enzymatic activity at 1 µM MET
Numbers only, in %.

// for each compound below, give its remaining activity at 1 µM
1. Nc1ncnc(Oc2ccc(NC(=O)c3cccn(-c4ccc(C(F)(F)F)cc4)c3=O)cc2F)c1F [Cmpd 9]
2. Nc1ncnc(Oc2ccc(NC(=O)c3cccn(-c4ccc(F)cc4)c3=O)c(F)c2)c1F [Cmpd 7]
3. Nc1ncnc(Sc2ccc(NC(=O)c3cccn(-c4ccc(F)cc4)c3=O)cc2F)c1F [Cmpd 19]
4. Nc1ncnc(Oc2ccc(NC(=O)c3cccn(-c4ccc(F)cc4)c3=O)cc2)c1Cl [Cmpd 4]

(A)
64
-6
78
-5

// for each compound below, give its remaining activity at 1 µM
1. Nc1ncnc(Oc2ccc(NC(=O)c3cccn(-c4ccc(F)cc4)c3=O)cc2F)c1F [Cmpd 1]
2. Cc1ccc(-n2cccc(C(=O)Nc3ccc(Oc4ncnc(N)c4F)c(F)c3)c2=O)cc1 [Cmpd 35]
3. Nc1ncnc(Oc2cc(F)c(NC(=O)c3cccn(-c4ccc(F)cc4)c3=O)cc2F)c1Cl [Cmpd 21]
4. Nc1ncnc(Oc2ccc(NC(=O)c3cccn(-c4ccc(F)cc4)c3=O)cc2F)c1Cl [Cmpd 3]

(A)
1. 0
2. 60
3. 5
4. -7

// for each compound below, give its remaining activity at 1 µM
1. Nc1ncnc(Oc2ccc(NC(=O)c3cccn(-c4ccc(F)cc4)c3=O)c(F)c2)c1Cl [Cmpd 5]
2. Nc1ncnc(Oc2ccc(NC(=O)c3cccn(-c4ccc(Cl)cc4)c3=O)cc2F)c1F [Cmpd 34]
3. Nc1ncnc(Oc2ccc(NC(=O)c3cccn(-c4ccc(F)cc4)c3=O)cc2Cl)c1Cl [Cmpd 23]
4. Nc1ncnc(Nc2ccc(NC(=O)c3cccn(-c4ccc(F)cc4)c3=O)cc2F)c1Cl [Cmpd 36]
5. Nc1ncc(Cl)c(Oc2ccc(NC(=O)c3cccn(-c4ccc(F)cc4)c3=O)c(F)c2)n1 [Cmpd 25]
6. Nc1ncnc(Oc2ccc(NC(=O)c3cccn(-c4ccc(OC(F)(F)F)cc4)c3=O)cc2F)c1F [Cmpd 8]
7. Nc1ncnc(Oc2ccc(NC(=O)c3cccn(-c4ccc(F)cc4)c3=O)cc2Cl)c1F [Cmpd 22]

(A)
1: -5; 2: 91; 3: 98; 4: 87; 5: 87; 6: 85; 7: 93

###

measurement target: Mer (Homo sapiens, UniProt Q12866)
Construct: purchased Eurofins Discovery (Kinase Profiler service)
Sequence (Q12866 21-999): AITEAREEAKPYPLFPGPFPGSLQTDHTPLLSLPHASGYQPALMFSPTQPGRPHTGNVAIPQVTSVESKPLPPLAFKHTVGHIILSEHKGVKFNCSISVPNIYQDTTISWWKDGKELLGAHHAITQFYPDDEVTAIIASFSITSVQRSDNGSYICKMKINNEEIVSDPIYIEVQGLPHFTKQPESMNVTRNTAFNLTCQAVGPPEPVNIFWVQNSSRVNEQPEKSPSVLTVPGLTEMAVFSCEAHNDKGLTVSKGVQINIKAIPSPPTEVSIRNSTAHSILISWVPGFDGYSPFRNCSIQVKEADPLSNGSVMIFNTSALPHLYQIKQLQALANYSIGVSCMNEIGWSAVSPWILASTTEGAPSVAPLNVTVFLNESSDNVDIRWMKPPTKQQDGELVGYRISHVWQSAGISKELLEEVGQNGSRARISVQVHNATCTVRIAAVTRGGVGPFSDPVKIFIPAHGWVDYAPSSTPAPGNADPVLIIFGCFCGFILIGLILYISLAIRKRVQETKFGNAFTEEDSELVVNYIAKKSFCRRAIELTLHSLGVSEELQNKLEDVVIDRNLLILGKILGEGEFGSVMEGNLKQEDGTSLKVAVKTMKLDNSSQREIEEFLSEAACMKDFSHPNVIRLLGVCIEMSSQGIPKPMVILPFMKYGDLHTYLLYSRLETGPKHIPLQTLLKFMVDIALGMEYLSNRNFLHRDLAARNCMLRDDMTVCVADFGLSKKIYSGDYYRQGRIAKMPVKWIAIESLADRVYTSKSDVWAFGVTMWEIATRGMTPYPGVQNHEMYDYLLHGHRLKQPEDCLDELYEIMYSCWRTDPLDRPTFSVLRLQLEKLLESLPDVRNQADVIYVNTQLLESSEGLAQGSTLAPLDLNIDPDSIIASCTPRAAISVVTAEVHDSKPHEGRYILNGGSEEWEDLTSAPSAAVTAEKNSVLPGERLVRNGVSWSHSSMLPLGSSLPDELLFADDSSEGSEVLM
measurement notes: Filter-binding radiometric kinase activity assay (KinaseProfiler, Eurofins)
Format: biochemical
conditions: 1 µM compound; read-out: % Residual enzymatic activity at 1 µM Mer
API: label(entry) gives 1 if the entry's remaining activity at 1 µM is strictly smaller than 90%; on equality or larger values it gives -1.

Solved entries (count: 3):
Nc1ncnc(Oc2ccc(NC(=O)c3cccn(-c4ccc(F)cc4)c3=O)cc2Cl)c1Cl | -1
Nc1ncnc(Oc2ccc(NC(=O)c3cccn(-c4ccc(OC(F)(F)F)cc4)c3=O)cc2F)c1F | -1
Nc1ncnc(Oc2ccc(NC(=O)c3cccn(-c4ccc(F)cc4)c3=O)c(F)c2)c1Cl | 1

(Q) Given the entry `Cc1ccc(-n2cccc(C(=O)Nc3ccc(Oc4ncnc(N)c4Cl)cc3F)c2=O)cc1` , would its reported remaining activity at 1 µM be below 90%?
(A) -1

(Q) Given the entry `Nc1ncc(Cl)c(Oc2ccc(NC(=O)c3cccn(-c4ccc(F)cc4)c3=O)cc2F)n1` , would its reported remaining activity at 1 µM be below 90%?
(A) 1

(Q) Given the entry `Nc1ncnc(Oc2cc(F)c(NC(=O)c3cccn(-c4ccc(F)cc4)c3=O)cc2F)c1F` , would its reported remaining activity at 1 µM be below 90%?
(A) 1

###

measurement target: TYRO3 (Homo sapiens)
Construct: purchased Eurofins Discovery (Kinase Profiler service)
measurement notes: Filter-binding radiometric kinase activity assay (KinaseProfiler, Eurofins)
Format: biochemical
conditions: 1 µM compound; read-out: % Residual enzymatic activity at 1 µM TYRO3
API: label(entry) gives MET if the entry's remaining activity at 1 µM is strictly smaller than 60%; on equality or larger values it gives NOT MET.

Solved entries (count: 3):
Nc1ncnc(Sc2ccc(NC(=O)c3cccn(-c4ccc(F)cc4)c3=O)cc2F)c1F | NOT MET
Nc1ncnc(Oc2ccc(NC(=O)c3cccn(-c4ccc(F)cc4)c3=O)cc2)c1Cl | MET
Nc1ncnc(Oc2ccc(NC(=O)c3cccn(-c4ccc(Cl)cc4)c3=O)cc2F)c1F | NOT MET

We next turn to a different compound, shown below.
(Q) Given the entry `Nc1ncnc(Oc2ccc(NC(=O)c3cccn(-c4ccc(F)cc4)c3=O)cc2Cl)c1F` , would its reported remaining activity at 1 µM be below 60%?
(A) NOT MET

###

Could you please report measured remaining activity at 1 µM for the items listed next?
measurement target: TYRO3 (Homo sapiens)
Construct: purchased Eurofins Discovery (Kinase Profiler service)
Sequence (Q06418 41-890): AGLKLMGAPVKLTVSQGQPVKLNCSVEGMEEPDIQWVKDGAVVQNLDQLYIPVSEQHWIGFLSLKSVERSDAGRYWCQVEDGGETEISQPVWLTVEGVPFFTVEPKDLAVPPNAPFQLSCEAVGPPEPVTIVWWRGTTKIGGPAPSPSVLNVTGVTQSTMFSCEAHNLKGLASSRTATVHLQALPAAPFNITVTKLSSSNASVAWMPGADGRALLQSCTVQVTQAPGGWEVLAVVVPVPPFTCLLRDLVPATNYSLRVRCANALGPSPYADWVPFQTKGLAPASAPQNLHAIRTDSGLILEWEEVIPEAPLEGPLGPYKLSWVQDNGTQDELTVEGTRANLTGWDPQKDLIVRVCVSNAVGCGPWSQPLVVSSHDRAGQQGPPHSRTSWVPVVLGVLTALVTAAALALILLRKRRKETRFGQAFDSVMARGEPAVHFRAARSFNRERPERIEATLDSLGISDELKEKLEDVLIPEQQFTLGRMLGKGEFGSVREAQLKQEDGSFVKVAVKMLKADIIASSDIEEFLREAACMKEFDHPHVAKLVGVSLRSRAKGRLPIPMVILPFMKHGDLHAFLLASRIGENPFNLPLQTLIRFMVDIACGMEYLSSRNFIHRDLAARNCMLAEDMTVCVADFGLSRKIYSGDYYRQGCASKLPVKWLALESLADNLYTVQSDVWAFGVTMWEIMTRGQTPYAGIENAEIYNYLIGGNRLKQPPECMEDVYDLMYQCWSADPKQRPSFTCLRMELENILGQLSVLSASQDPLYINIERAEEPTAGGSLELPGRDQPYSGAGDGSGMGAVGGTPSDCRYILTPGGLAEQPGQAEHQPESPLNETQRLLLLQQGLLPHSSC
measurement notes: Filter-binding radiometric kinase activity assay (KinaseProfiler, Eurofins)
Assay type: biochemical
conditions: 1 µM compound; read-out: % Residual enzymatic activity at 1 µM TYRO3
Numbers only, in %.

// below: answered compounds
Nc1ncc(Cl)c(Oc2ccc(NC(=O)c3cccn(-c4ccc(F)cc4)c3=O)cc2F)n1 | 94
Nc1ncc(Cl)c(Oc2ccc(NC(=O)c3cccn(-c4ccc(F)cc4)c3=O)c(F)c2)n1 | 89
Nc1ncnc(Oc2cc(F)c(NC(=O)c3cccn(-c4ccc(F)cc4)c3=O)cc2F)c1Cl | 3

(Q) Record request: remaining activity at 1 µM value, item `Nc1ncnc(Oc2ccc(NC(=O)c3cccn(-c4ccc(F)cc4)c3=O)c(Cl)c2)c1Cl`
(A) 39

###

Could you please report measured remaining activity at 1 µM for the items listed next?
measurement target: CDK4D1 (Homo sapiens)
Sequence (P11802 whole entry): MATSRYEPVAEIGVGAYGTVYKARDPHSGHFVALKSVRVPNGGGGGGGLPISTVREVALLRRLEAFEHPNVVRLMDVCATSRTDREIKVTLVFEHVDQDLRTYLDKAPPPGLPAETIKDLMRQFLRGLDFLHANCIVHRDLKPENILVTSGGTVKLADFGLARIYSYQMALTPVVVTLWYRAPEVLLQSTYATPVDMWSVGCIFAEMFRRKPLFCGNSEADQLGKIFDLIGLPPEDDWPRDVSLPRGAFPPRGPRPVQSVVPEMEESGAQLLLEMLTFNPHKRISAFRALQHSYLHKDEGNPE
Sequence (P24385 whole entry partner): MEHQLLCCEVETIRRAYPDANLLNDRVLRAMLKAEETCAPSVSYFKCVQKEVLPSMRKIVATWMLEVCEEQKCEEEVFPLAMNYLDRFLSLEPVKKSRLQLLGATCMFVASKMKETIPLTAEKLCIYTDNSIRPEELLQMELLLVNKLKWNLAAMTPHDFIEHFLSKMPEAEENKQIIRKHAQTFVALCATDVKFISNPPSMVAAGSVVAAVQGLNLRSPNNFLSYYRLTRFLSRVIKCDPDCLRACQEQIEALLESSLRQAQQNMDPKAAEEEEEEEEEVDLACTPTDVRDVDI
measurement notes: ADP Glo Kinase assay
Format: biochemical
conditions: 1 µM compound; read-out: % Residual enzymatic activity at 1 µM CDK4D1
Numbers only, in %.

Nc1ncnc(Oc2ccc(NC(=O)c3cccn(-c4ccc(F)cc4)c3=O)cc2)c1F | 69

// for each compound below, give its remaining activity at 1 µM
1. Nc1ncnc(Oc2ccc(NC(=O)c3cccn(-c4ccc(F)cc4)c3=O)c(F)c2)c1Cl
2. Nc1ncnc(Oc2ccc(NC(=O)c3cccn(-c4ccc(F)cc4)c3=O)c(F)c2)c1F
3. Nc1ncnc(Oc2ccc(NC(=O)c3cccn(-c4ccc(F)cc4)c3=O)cc2F)c1Cl
4. CCOc1ccn(-c2ccc(F)cc2)c(=O)c1C(=O)Nc1ccc(Oc2ncnc(N)c2Cl)c(F)c1
5. Nc1ncnc(Oc2ccc(NC(=O)c3cccn(-c4ccc(F)cc4)c3=O)cc2F)c1F
6. Nc1ncnc(Oc2ccc(NC(=O)c3cccn(-c4ccc(F)cc4)c3=O)cc2)c1Cl

(A)
1: 72; 2: 72; 3: 69; 4: 38; 5: 40; 6: 48

###

measurement target: TYRO3 (Homo sapiens, UniProt Q06418)
Construct: purchased Eurofins Discovery (Kinase Profiler service)
measurement notes: Filter-binding radiometric kinase activity assay (KinaseProfiler, Eurofins)
Format: biochemical
conditions: 1 µM compound; read-out: % Residual enzymatic activity at 1 µM TYRO3
measure name: remaining activity at 1 µM (%)
One number for each entry, in %.

// below: answered compounds
Nc1ncnc(Oc2ccc(NC(=O)c3cccn(-c4ccc(F)cc4)c3=O)c(F)c2)c1Cl | 2
Nc1ncnc(Oc2ccc(NC(=O)c3cccn(-c4ccc(F)cc4)c3=O)cc2)c1F | 6
Nc1ncnc(Oc2ccc(NC(=O)c3cccn(-c4ccc(F)cc4)c3=O)c(Cl)c2)c1F | 50
Nc1ncnc(Nc2ccc(NC(=O)c3cccn(-c4ccc(F)cc4)c3=O)cc2F)c1Cl | 70

Okay, now this compound:
(Q) Record request: remaining activity at 1 µM value, item `Nc1ncnc(Oc2ccc(NC(=O)c3cccn(-c4ccc(F)cc4)c3=O)cc2F)c1F`
(A) -1
